- System: 857933-349-R-J2-PDC complex spheroid viability
- ASSAY TEXT: Anticancer human tumor 857933-349-R-J2-PDC patient-derived colon adenocarcinoma cell line growth inhibition [POLQ]
- MEASUREMENT CONTEXT: curve of first compound; second compound 0.0316 µM
Give measured IC50 for each item. Keep answers brief.

Look at this compound and give its reported IC50. CCc1cc2c(N3CCc4c(cc(Cn5ccnc5)cc4-c4cn(C)nc4C(F)(F)F)C3=O)ccnc2c(OC)n1 + COC1C(OC(N)=O)C(O)C(Oc2ccc3c(O)c(NC(=O)c4ccc(O)c(CC=C(C)C)c4)c(=O)oc3c2C)OC1(C)C
> 10 µM

Look at this compound and give its reported IC50. O=C(Nc1ccc(O)c(NS(=O)(=O)c2ccc(F)cc2)c1)c1ccc(-c2ccccc2)cc1 + Nc1ccc(C#CCN(C(=O)Cc2ncc(C(F)(F)F)cc2C(F)(F)F)c2ccc(F)cc2)nn1
> 10 µM

Look at this compound and give its reported IC50. COc1cc2cc(C(=O)CCC(=O)O)sc2cc1OC + Cc1cccc(N(C)C(=O)C2C(O)CCN2c2nc(C)cc(C(F)(F)F)c2C#N)c1
> 10 µM

###

- System: 857933-349-R-J2-PDC complex spheroid viability
- ASSAY TEXT: Anticancer human tumor 857933-349-R-J2-PDC cell line growth inhibition [POLQ];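 also: spheroids exposed to compounds for seven days before readout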
- MEASUREMENT CONTEXT: second compound 10 µM; first compound 0.316 µM; stronger effect = lower value
MEASURED PROPERTY: viability, T/C (%)
# output: bare number, implied unit %

Look at this molecule and give its reported viability, T/C. CC1COCCN1c1cc(-c2ccnn2C)c2ccnc(-c3ccn[nH]3)c2n1 (stereo not drawn) + Nc1ccc(C#CCN(C(=O)Cc2ncc(C(F)(F)F)cc2C(F)(F)F)c2ccc(F)cc2)nn1
54.8

Look at this molecule and give its reported viability, T/C. CC1COCCN1c1cc(C2(O)CC3CCC(C2)O3)c2cnn(-c3ccn[nH]3)c2n1 (stereo not drawn) + Nc1ccc(C#CCN(C(=O)Cc2ncc(C(F)(F)F)cc2C(F)(F)F)c2ccc(F)cc2)nn1
62.1

Look at this molecule and give its reported viability, T/C. O=C(Nc1ccc(O)c(NS(=O)(=O)c2ccc(F)cc2)c1)c1ccc(-c2ccccc2)cc1 + COC1C(OC(N)=O)C(O)C(Oc2ccc3c(O)c(NC(=O)c4ccc(O)c(CC=C(C)C)c4)c(=O)oc3c2C)OC1(C)C
99.8

Look at this molecule and give its reported viability, T/C. CC1COCCN1c1cc(-c2ccnn2C)c2ccnc(-c3ccn[nH]3)c2n1 (stereo not drawn) + Cc1cccc(N(C)C(=O)C2C(O)CCN2c2nc(C)cc(C(F)(F)F)c2C#N)c1
40

Look at this molecule and give its reported viability, T/C. C#Cc1c(F)ccc2cc(O)cc(-c3ncc4c(N5CC6CCC(C5)N6)nc(OCC56CCCN5CC(F)C6)nc4c3F)c12 (stereo not drawn) + Nc1ccc(C#CCN(C(=O)Cc2ncc(C(F)(F)F)cc2C(F)(F)F)c2ccc(F)cc2)nn1
87

Look at this molecule and give its reported viability, T/C. COc1cccc(OCCCN)c1-c1cc(Nc2cnc(C#N)cn2)n[nH]1 + Nc1ccc(C#CCN(C(=O)Cc2ncc(C(F)(F)F)cc2C(F)(F)F)c2ccc(F)cc2)nn1
57

Look at this molecule and give its reported viability, T/C. CC1COCCN1c1cc(-c2ccnn2C)c2ccnc(-c3ccn[nH]3)c2n1 (stereo not drawn) + COC1C(OC(N)=O)C(O)C(Oc2ccc3c(O)c(NC(=O)c4ccc(O)c(CC=C(C)C)c4)c(=O)oc3c2C)OC1(C)C
50.1

Look at this molecule and give its reported viability, T/C. O=C(Nc1ccc(O)c(NS(=O)(=O)c2ccc(F)cc2)c1)c1ccc(-c2ccccc2)cc1 + Nc1ccc(C#CCN(C(=O)Cc2ncc(C(F)(F)F)cc2C(F)(F)F)c2ccc(F)cc2)nn1
98.6

Data provenance is PubChem BioAssay AID1963836.
